For each entry below, report its GI50 value.
Tested on: EKVX NSCLC
Assay: NCI tumour cell line growth inhibition, 48 h

Problem: Which measured GI50 value corresponds to "Cn1cc(CNCC2CCN(c3ncc(C(=O)NO)cn3)CC2)c2ccccc21" ?
Solution: 25.5 nM

Problem: Which measured GI50 value corresponds to "CSc1ccc(/C=C2\C=C(CC(=O)NCc3ccc(C(=O)c4ccccc4)cc3)c3cc(F)ccc32)cc1" ?
Solution: 423 nM

Problem: Which measured GI50 value corresponds to "COc1cc2nc(-c3ccc(C(F)(F)F)cc3)cc(OCCCN3CCCCC3)c2cc1OC" ?
Solution: 803 nM

* * *

Tested on: HS 578T breast
Assay: NCI tumour cell line growth inhibition, 48 h
READOUT: TGI

Problem: What TGI appears in the records for this compound with HS 578T breast? CN(Cc1cnc2nc(N)nc(N)c2n1)c1ccc(C(=O)NC(CCC(=O)NCC(P(=O)(O)O)P(=O)(O)O)C(=O)O)cc1 (stereo not drawn)
Solution: > 100 µM

Problem: What TGI appears in the records for this compound with HS 578T breast? "COC(=O)CCCCCN=Cc1c(O)c(O)c(C(C)C)c2cc(C)c(-c3c(C)cc4c(C(C)C)c(O)c(O)c(C=NCCCCCC(=O)OC)c4c3O)c(O)c12"
Solution: > 32.5 µM

Problem: What TGI appears in the records for this compound with HS 578T breast? "Cc1c2c(OCCCCN3CCN(c4ncccn4)CC3)nn(C)c(=O)c2c(C)n1-c1ccccc1"
Solution: 67.8 µM

Problem: What TGI appears in the records for this compound with HS 578T breast? "CCN(CCNc1ccc(C)c2sc3ccccc3c(=O)c12)CC(C)(C)O"
Solution: 29.2 µM

Problem: What TGI appears in the records for this compound with HS 578T breast? "CC(C)(C)OC[C@H](O)CC#N"
Solution: > 100 µM

Problem: What TGI appears in the records for this compound with HS 578T breast? "c1ccc2c(c1)nc1n2CCSC1"
Solution: > 100 µM

Problem: What TGI appears in the records for this compound with HS 578T breast? "CC(C)Oc1cc(O)c2c(c1)OCC=C2CCC(=O)O"
Solution: > 100 µM

Problem: What TGI appears in the records for this compound with HS 578T breast? CCOc1cc(C2CC(c3ccc(NS(=O)(=O)c4cc([N+](=O)[O-])ccc4C)cc3)=NN2)ccc1O (stereo not drawn)
Solution: > 100 µM

* * *

Tested on: UACC-257 melanoma
Experiment: NCI tumour cell line growth inhibition, 48 h
READOUT: GI50

Problem: Which measured GI50 value corresponds to "COc1cc(Cn2c(-c3nonc3N)nc3ccccc32)ccc1C" ?
Solution: 419 nM

Problem: Which measured GI50 value corresponds to "O=C1CCCN1CC#CCN1CCCC1" ?
Solution: > 100000 nM

Problem: Which measured GI50 value corresponds to c1cc(CNC2C3CCC(C3)C2c2c[nH]c3ccccc23)cc(CNC2C3CCC(C3)C2c2c[nH]c3ccccc23)c1 (stereo not given) ?
Solution: 2000 nM

Problem: Which measured GI50 value corresponds to "O=[N+]([O-])c1ccc2c(c1)[O][Sn][O]2" ?
Solution: 40.5 µg/mL

Problem: Which measured GI50 value corresponds to "Cc1ccc(NC(=O)Cn2c(Br)nc3c2c(=O)n(C)c(=O)n3C)cc1" ?
Solution: 13900 nM

* * *

Test system: MOLT-4 leukemia
Assay: NCI tumour cell line growth inhibition, 48 h
READOUT: TGI

Problem: Which measured TGI value corresponds to "COC(=O)CCC1=C(C)/C(=C/c2[nH]c(-c3ccc[nH]3)cc2OC)N=C1C" ?
Solution: 7.08 µM

Problem: Which measured TGI value corresponds to "CSc1cc(N)ccc1N=Nc1ccc(S(N)(=O)=O)cc1" ?
Solution: > 100 µM

Problem: Which measured TGI value corresponds to "O=C([CH-]C(=O)C(F)(F)F)c1ccccc1.O=C([CH-]C(=O)C(F)(F)F)c1ccccc1.O=C([CH-]C(=O)C(F)(F)F)c1ccccc1.O=C([CH-]C(=O)C(F)(F)F)c1ccccc1.[Eu+3].c1ccncc1" ?
Solution: 36.2 µM

Problem: Which measured TGI value corresponds to "COc1ccc(Cn2c(Cl)c(/C=C3/C(=O)Nc4ccccc43)c3cc(OC)c(C)cc32)cc1" ?
Solution: > 100 µM

Problem: Which measured TGI value corresponds to O=C1NC2(CN3CCC2CC3)C(=O)N1CN(Cc1ccccc1)c1ccccc1 (stereo not given) ?
Solution: > 100 µM

Problem: Which measured TGI value corresponds to "COc1ccc(CN2c3ccccc3CCc3ccccc32)cc1F" ?
Solution: > 100 µM

Problem: Which measured TGI value corresponds to "O=C1c2cccc3cccc(c23)C(=O)N1CCCNOCCONCCCN1C(=O)c2cccc3cccc(c23)C1=O" ?
Solution: > 100 µM

Problem: Which measured TGI value corresponds to "O=Cc1ccc(-c2cccs2)s1" ?
Solution: > 100 µM

Problem: Which measured TGI value corresponds to COc1ccc(OC)c2c1C1CCC(=O)N1CN2C(C)=O (stereo not given) ?
Solution: > 100 µM

Problem: Which measured TGI value corresponds to "Cc1c2ccc(N(C)c3ccnc(Nc4cccc(S(N)(=O)=O)c4)n3)cc2nn1C" ?
Solution: > 23.6 µM

Problem: Which measured TGI value corresponds to COc1cc(S(=O)(=O)Nc2ccc(-c3csc(N4C(=O)CSC4c4ccccc4)n3)cc2)ccc1Cl (stereo not given) ?
Solution: > 100 µM

Problem: Which measured TGI value corresponds to "O=c1ccc(=O)c2c(=O)c3ccccc3c(=O)c1=2" ?
Solution: > 100 µM

Problem: Which measured TGI value corresponds to S=C(S)NCC1CCC(CNC(=S)S)CC1 (stereo not given) ?
Solution: 65.2 µM

Problem: Which measured TGI value corresponds to "NNc1nncn1N" ?
Solution: > 100 µM

Problem: Which measured TGI value corresponds to "O=[N+]([O-])c1nccn1COCCBr" ?
Solution: > 100 µM

* * *

System: SK-MEL-5 melanoma
Test: NCI tumour cell line growth inhibition, 48 h
READOUT: TGI

Problem: Which measured TGI value corresponds to S=C(S)NCC1CCC(CNC(=S)S)CC1 (configuration not stated) ?
Solution: > 100 µM

Problem: Which measured TGI value corresponds to OCC1OC(n2cnc3c(/C=C(/O)c4ccccc4)ncnc32)C(O)C1O (configuration not stated) ?
Solution: 79.7 µM

Problem: Which measured TGI value corresponds to "Cc1nc(C(N)=S)sc1C(=O)C/C(=N/N)C(=O)Nc1cccc(Cl)c1C" ?
Solution: > 100 µM

Problem: Which measured TGI value corresponds to OC12CC/C(=N/OCc3ccccc3)CC1c1ccccc12 (configuration not stated) ?
Solution: > 100 µM

Problem: Which measured TGI value corresponds to CC(=O)Oc1ccc(C2COc3cc(OC(C)=O)c(OC(C)=O)cc3C2)cc1 (configuration not stated) ?
Solution: 6.63 µM

Problem: Which measured TGI value corresponds to "CCN(CCNc1ccc(C)c2sc3ccccc3c(=O)c12)CC(C)(C)O" ?
Solution: 6.17 µM

Problem: Which measured TGI value corresponds to "Fc1cccc(Cl)c1/C=N\N=C1c2ccccc2-c2ccccc21" ?
Solution: > 100 µM

Problem: Which measured TGI value corresponds to "CN(C)C(=O)O[C@@H]1CN[C@@H](C#Cc2cc3ncnc(Nc4ccc(OCc5cccc(F)c5)c(Cl)c4)c3s2)C1" ?
Solution: > 25 µM

Problem: Which measured TGI value corresponds to "CC(=O)Nc1ccc(S(=O)(=O)NNC(=O)c2cccnc2Nc2ccc(Cl)cc2)cc1" ?
Solution: > 100 µM

Problem: Which measured TGI value corresponds to "CSc1cc(N)ccc1N=Nc1ccc(S(N)(=O)=O)cc1" ?
Solution: 30.6 µM

Problem: Which measured TGI value corresponds to CCOc1cc(C2CC(c3ccc(NS(=O)(=O)c4cc([N+](=O)[O-])ccc4C)cc3)=NN2)ccc1O (configuration not stated) ?
Solution: 37.8 µM

Problem: Which measured TGI value corresponds to "Cc1c2c(OCCCCN3CCN(c4ncccn4)CC3)nn(C)c(=O)c2c(C)n1-c1ccccc1" ?
Solution: 26.8 µM

Problem: Which measured TGI value corresponds to "CCCCOCn1c(=O)[nH]c(=O)c2cc(Br)ccc21" ?
Solution: > 100 µM

Problem: Which measured TGI value corresponds to O=S1(=O)c2ccccc2NC(=S)CC1c1ccccc1 (configuration not stated) ?
Solution: > 100 µM

Problem: Which measured TGI value corresponds to CN(Cc1cnc2nc(N)nc(N)c2n1)c1ccc(C(=O)NC(CCC(=O)NCC(P(=O)(O)O)P(=O)(O)O)C(=O)O)cc1 (configuration not stated) ?
Solution: > 100 µM

Problem: Which measured TGI value corresponds to "Cc1cc(=O)oc2cc(O)ccc12" ?
Solution: > 100 µM

Problem: Which measured TGI value corresponds to "Oc1ccc(CCc2cc(O)cc(O)c2)cc1" ?
Solution: > 100 µM

Problem: Which measured TGI value corresponds to "NC(N)=NS(=O)(=O)c1ccc(NC(=O)c2ccc3nc4ccccc4c(Nc4ccc(S(N)(=O)=O)cc4)c3c2)cc1" ?
Solution: > 100 µM

Problem: Which measured TGI value corresponds to "COc1cc(/C=N/Nc2nnc3c4ccccc4c4ncccc4c3n2)cc(OC)c1OC" ?
Solution: > 10 µM

Problem: Which measured TGI value corresponds to "O=C(NCc1ccc(Cl)cc1)c1cc2sccc2nc1C(F)(F)F" ?
Solution: > 100 µM

Problem: Which measured TGI value corresponds to "Nc1cc(N2CCCC2)nc(=O)n1Cc1ccccc1" ?
Solution: > 100 µM

Problem: Which measured TGI value corresponds to "CC(C)CNC(=O)Cn1c(-c2ccccc2)cc2ccccc21" ?
Solution: > 100 µM

Hello, the source for this data is PubChem BioAssay (NCI), in case you need it.
